- assayed system: HIV-1 RT (Human immunodeficiency virus type 1 group M subtype B, UniProt P04585)
- Construct: Wild-type HIV-1 RT p66/p51 heterodimers; 6-His (N); made in house
- protocol notes: HIV-1 RT enzymatic (combination) inhibition assay, steady state, activated calf thymus DNA
- Assay type: biochemical
- study conditions: [α-32P]-dATP incorporation as marker
quantity measured: IC50 (nM)

[[record]]
compound = "Nc1nc(=O)n([C@@H]2CS[C@H](COP(=O)(O)OP(=O)(O)OP(=O)(O)O)O2)cc1F [FTC-TP, FTC triphosphate]"
quantity_measured = "IC50"
reported = 5000

[[record]]
compound = "C[C@@H](Cn1cnc2c(N)ncnc21)OCP(=O)(O)OP(=O)(O)OP(=O)(O)O [TFV-DP, TFV diphosphate]"
quantity_measured = "IC50"
reported = 530

